test system: UACC-62 melanoma; assay: NCI-60 one-dose screen, 48 h (100 = growth as untreated, 0 = no growth, -100 = all killed); conditions: 10 µM unless noted
The panel holds about 83,000 compounds, 20% with a hit somewhere; the sample as a whole holds those more often.
Give measured growth for each item. Keep answers brief.
Express the result in % but write the number alone.

Param item = CCOC(=O)C1=C(N)Oc2c(sc3c(F)cccc23)C1c1ccc(O)cc1 (stereo not drawn) ; retrieve measured growth.
26.3

Param item = C=C(C)[C@@H]1CC[C@]2(CO)CC[C@]3(C)[C@H](CC[C@@H]4[C@@]5(C)CC[C@H](NCO)C(C)(C)[C@@H]5CC[C@]43C)[C@@H]12 ; retrieve measured growth.
83.6

Param item = COc1ccccc1N1CCCCC1 ; retrieve measured growth.
96.3

Param item = CCOC(=O)c1cc(C(=O)c2cc(OC)c(OC)c(OC)c2)n2ncccc12 ; retrieve measured growth.
29.5

Param item = CCCCCCCCCCCCCCCCOCCCOP(=O)(O)C1CCCN(O)C1=O (stereo not drawn) ; retrieve measured growth.
-13

Param item = O=C(/C=C/c1cccc(Cl)c1)c1ccc(Nc2nc(Nc3ccc(F)cc3)nc(Nc3ccc(Cl)cc3)n2)cc1 ; retrieve measured growth.
108

Param item = CCOC(=O)c1ccc(NC(=O)c2nc(-c3cc(OC)c(OC)c(OC)c3)n(-c3ccc(Cl)cc3)n2)cc1 ; retrieve measured growth.
77.7

Param item = CCCCCCC12CCC(=O)N1CCc1cncn12 (stereo not drawn) ; retrieve measured growth.
95.6

Param item = Nc1nc(N)c(-c2ccc(Cl)c(Cl)c2)c(CBr)n1 ; retrieve measured growth.
57

Param item = Cc1cc(N2CCN(CCNc3ccnc4cc(Cl)ccc34)CC2)nc(N2CCOCC2)n1 ; retrieve measured growth.
60.2

Param item = CCOC(=O)c1nn(-c2ccc(S(N)(=O)=O)cc2)c2nc(C)cc(=O)n12 ; retrieve measured growth.
99.6

Param item = Cc1cccc(CNc2c3ccccc3nc3ccccc23)c1 ; retrieve measured growth.
42.8

Param item = COc1ccc(-c2ccc(=O)oc2-c2cc(OC)c(OC)c(OC)c2)cc1O ; retrieve measured growth.
34.7

Param item = Cn1ccnc1C(=O)/C=C/c1ccc(C(=O)Nc2ccccc2O)cc1 ; retrieve measured growth.
50.6

Param item = NNc1nc(-c2cccnc2)nc2c1sc(=S)n2-c1ccccc1 ; retrieve measured growth.
108

Param item = Cc1cccc(/C=C2\CN(C(=O)OC(C)(C)C)C/C(=C\c3cccc(C)c3)C2=O)c1 ; retrieve measured growth.
81.3

Param item = CCOC(=O)c1c(NC(=O)c2ccc(Cl)cc2)sc2c(CN(C)C)c(O)ccc12 ; retrieve measured growth.
103

Param item = CN1CCc2nc3sc(C(N)=O)c(N)c3c(-c3cccs3)c2C1 ; retrieve measured growth.
19.5

---

Give measured growth for each item. Keep answers brief.
test system: HCT-15 colon; assay: NCI-60 one-dose screen, 48 h (100 = growth as untreated, 0 = no growth, -100 = all killed); settings: 10 µM unless noted
The panel holds about 83,000 compounds, 20% with a hit somewhere; the sample as a whole holds those more often.
Express the result in % but write the number alone.

Param item = CCn1cc(C(=O)O)c(=O)c2cc(F)c(N3CCN(CC(=O)Nc4ccc(S(=O)(=O)Nc5nccc(C)n5)cc4)C(C)C3)c(F)c21 (centres undefined) ; retrieve measured growth.
100

Param item = COC(=O)/C=C1/SC(=Nc2cccc(OC)c2)N(CCc2c[nH]c3ccc(O)cc23)C1=O ; retrieve measured growth.
26.4

Param item = COC1=CC(c2ccc[nH]2)=N/C1=C\c1[nH]c(C)c(CC(=O)NCc2ccccc2)c1C ; retrieve measured growth.
-26

Param item = Cc1cc(S(=O)(=O)/N=C(\N)n2nc(C)c(C)c2C)c(SCc2ccccc2)cc1Cl ; retrieve measured growth.
56.6

Param item = CN1CCN(C(=O)c2ccc(NC(=O)c3cc4c(nn3)NCCN4Cc3cc(Cl)ccc3Cl)cc2)CC1 ; retrieve measured growth.
68

Param item = CCN(C)S(=O)(=O)Nc1cccc(Nc2ncnc3cc(NC(=O)CCl)ccc23)c1Cl ; retrieve measured growth.
-12.3

Param item = CN(/C(N)=N/N=C/c1c2ccccc2cc2ccccc12)C1CCCCC1 ; retrieve measured growth.
25.5

Param item = COc1ccc(OC)c(/C=N/Nc2ncnc3c2c(C)nn3C)c1 ; retrieve measured growth.
100

Param item = N=C(N)c1ccc(-c2ccc(-c3ccccc3)o2)cc1 ; retrieve measured growth.
-62.1

---

Give measured growth for each item. Keep answers brief.
system: UO-31 renal; test: NCI-60 one-dose screen, 48 h (100 = growth as untreated, 0 = no growth, -100 = all killed); conditions: 10 µM unless noted
About 83,000 compounds went through this panel and 20% of them were active in at least one assay; those are over-represented in the sample as a whole.
Express the result in % but write the number alone.

Param item = CCn1cc(C(=O)NNC(=S)Nc2ccc(C)cc2)c(=O)c2ccc(C)nc21 ; retrieve measured growth.
78.9

Param item = O=C1/C(=C/c2ccccc2Br)COc2ccc(O)cc21 ; retrieve measured growth.
58.8

Param item = Cc1ccc(Nc2cc(N)nc(N)n2)cc1Cl ; retrieve measured growth.
83.4

Param item = CCc1ccc(CCCC(=O)O)cc1 ; retrieve measured growth.
92.1

Param item = O=C(CSc1nc2ccc([N+](=O)[O-])cc2[nH]1)Nc1ccc([N+](=O)[O-])cc1 ; retrieve measured growth.
9.43

Param item = Cn1cc(-c2csc(-c3c[nH]c4ccc(Br)cc34)n2)c2ccnc(Cl)c21 ; retrieve measured growth.
48.8

Param item = COC(=O)[C@]1(C)CCC[C@]2(C)[C@H]3C[C@H]4C(C(C)C)=C[C@]3(CC[C@H]21)[C@@H]1C(=O)CC[C@H](OCCC#N)[C@@H]14 ; retrieve measured growth.
71.1

Param item = O=C(/C=C/c1cccc(Cl)c1)c1ccc(Nc2nc(Nc3ccc(F)cc3)nc(Nc3ccc(Cl)cc3)n2)cc1 ; retrieve measured growth.
94.6

Param item = c1ccc2cc(C[n+]3ccn(CCCCCCCCCCn4cc[n+](Cc5ccc6ccccc6c5)c4)c3)ccc2c1 ; retrieve measured growth.
77.5

Param item = c1cc2c(ccc3[nH]c(-c4ccc5[nH]ncc5c4)c4c(c32)CCCC4)n1 ; retrieve measured growth.
53.3

Param item = CCOC(=O)C1=C(C)NC(=O)NC1c1c(Cl)n(CCCl)c2ccccc12 (centres undefined) ; retrieve measured growth.
68.5

Param item = CCN(CC)CC(O)COc1c(Br)c(Br)c(Br)c2c1OC(C)(C)C2 (centres undefined) ; retrieve measured growth.
91.2

Param item = CCn1c(SCC(=O)N/N=C(\C)c2ccc(Cl)cc2)nc2c1c(=O)n(C)c(=O)n2C ; retrieve measured growth.
80.8

Param item = Cn1cc(-c2csc(-c3c[nH]c4ccccc34)n2)c2cnccc21 ; retrieve measured growth.
-64.4

Param item = CCSc1oc(-c2ccccc2)nc1[P+](c1ccccc1)(c1ccccc1)c1ccccc1 ; retrieve measured growth.
-31.3

Param item = COCCn1cc(-c2nc(-c3cc4cccnc4[nH]3)cs2)c2cc(OC)ccc21 ; retrieve measured growth.
10.9

Param item = C#CCOc1ccc2ncnc(Nc3ccc(NC(=O)C=C)cc3)c2c1 ; retrieve measured growth.
-26.4

Param item = Cc1cccc(/C=C2\CN(C(=O)OC(C)(C)C)C/C(=C\c3cccc(C)c3)C2=O)c1 ; retrieve measured growth.
69

Param item = CCCCCN1C(=O)/C(=c2\sc3n(c2=O)C2C(NN=3)N(CC)C(=O)N2CC)c2ccccc21 (centres undefined) ; retrieve measured growth.
-40.8

---

system: DU-145 prostate; assay: NCI-60 one-dose screen, 48 h (100 = growth as untreated, 0 = no growth, -100 = all killed); details: 10 µM unless noted
The panel holds about 83,000 compounds, 20% with a hit somewhere; the sample as a whole holds those more often.
Give measured growth for each item. Keep answers brief.
Express the result in % but write the number alone.

Give recorded growth with DU-145 prostate for the following compound: COc1c(C(=O)Nc2ccc(C)c(Br)c2)ccc2ccccc12
96.8

Give recorded growth with DU-145 prostate for the following compound: O=C(CN1C(=O)NC2NC(=O)NC21)N/N=C/c1ccccc1[N+](=O)[O-] (stereo not drawn)
113

Give recorded growth with DU-145 prostate for the following compound: O=C(/C=C/c1cccs1)Nc1ncc(Cc2ccccc2F)s1
11.4

---

system: SNB-19 CNS; assay: NCI-60 one-dose screen, 48 h (100 = growth as untreated, 0 = no growth, -100 = all killed); settings: 10 µM unless noted
The panel holds about 83,000 compounds, 20% with a hit somewhere; the sample as a whole holds those more often.
Give measured growth for each item. Keep answers brief.
Express the result in % but write the number alone.

Param item = COc1ccccc1CNc1c2ccccc2nc2ccccc12 ; retrieve measured growth.
35.8

Param item = NNc1nc(-c2cccnc2)nc2c1sc(=S)n2-c1ccccc1 ; retrieve measured growth.
113

Param item = COC1=CC(c2ccc[nH]2)=N/C1=C\c1[nH]c(C)c(C)c1CCC(=O)OCc1ccccc1 ; retrieve measured growth.
21

Param item = Cc1nc2sc(C(=O)Nc3cccc(Br)c3)c(N)c2cc1C(O)c1ccccc1 (stereo not given) ; retrieve measured growth.
33.8

Param item = OB1OCc2cc(/C=C/c3cccc(C(F)(F)F)c3)ccc21 ; retrieve measured growth.
20.8

Param item = COc1c(B(O)O)cccc1-c1cc(C)c2c(ccc3[nH]ncc32)n1 ; retrieve measured growth.
91.1

Param item = COC(=O)CC[C@H](C)[C@H]1CC[C@H]2[C@@H]3CC[C@@H]4CC5(CC[C@]4(C)[C@H]3CC(=O)[C@]12C)Nc1ccccc1NC5=NC(C)(C)C (stereo not given in full) ; retrieve measured growth.
81.5

Param item = C=C1C(=O)O[C@H]2[C@H]1CC/C(Cn1cc(-c3ccccc3)nn1)=C\CC[C@@]1(C)O[C@@H]21 ; retrieve measured growth.
68.1

Param item = O=C(/C=C/c1cccc(Cl)c1)c1ccc(Nc2nc(Nc3ccc(F)cc3)nc(Nc3ccc(Cl)cc3)n2)cc1 ; retrieve measured growth.
118

Param item = O=C(Nc1nc2ccc(C(=O)N3CCN(/C=C/c4ccccc4)CC3)cc2s1)c1ccc(NCCc2ccccc2)c([N+](=O)[O-])c1 ; retrieve measured growth.
70.2
